Measured log10(IC50), listed per entry for reference.
tested on: HCT-116; experiment: Cytotoxicity against human HCT116 cells after 3 days by MTT assay; assay type: functional, cell-based; settings: Homo sapiens, HCT-116, 72 h
The common logarithm of IC50 in µM is what is listed.

• COC1=C(C)C(=O)C2=C(C1=O)[C@@H]1[C@@H]3CC4=C(C(=O)C(OC)=C(C)C4=O)[C@H](COC(=O)c4cccnc4)N3[C@@H](C#N)[C@H](C2)N1C = -2.10
• COC1=C(C)C(=O)C2=C(C1=O)[C@@H]1[C@@H]3CC4=C(C(=O)C(OC)=C(C)C4=O)[C@H](COC(=O)c4ccccn4)N3[C@@H](C#N)[C@H](C2)N1C = -2.48

Exercise: Identify measured log10(IC50) associated with "COC1=C(C)C(=O)C2=C(C1=O)[C@@H]1[C@@H]3CC4=C(C(=O)C(OC)=C(C)C4=O)[C@H](COC(=O)CCCl)N3[C@@H](C#N)[C@H](C2)N1C"
Key: -1.80

Exercise: Identify measured log10(IC50) associated with "CCCC(=O)OC[C@H]1C2=C(C[C@H]3[C@H]4C5=C(C[C@@H]([C@H](C#N)N13)N4C)C(=O)C(C)=C(OC)C5=O)C(=O)C(C)=C(OC)C2=O"
Key: -1.47

Exercise: Identify measured log10(IC50) associated with "COC1=C(C)C(=O)C2=C(C1=O)[C@@H]1[C@@H]3CC4=C(C(=O)C(OC)=C(C)C4=O)[C@H](COC(=O)c4ccccc4)N3[C@@H](C#N)[C@H](C2)N1C"
Key: -1.60

Exercise: Identify measured log10(IC50) associated with "COC1=C(C)C(=O)C2=C(C1=O)[C@@H]1[C@@H]3CC4=C(C(=O)C(OC)=C(C)C4=O)[C@H](COC(=O)c4ccc(OC)cc4)N3[C@@H](C#N)[C@H](C2)N1C"
Key: -1.59

Exercise: Identify measured log10(IC50) associated with "COC1=C(C)C(=O)C2=C(C1=O)[C@@H]1[C@@H]3CC4=C(C(=O)C(OC)=C(C)C4=O)[C@H](COC(=O)c4ccc(Br)cc4)N3[C@@H](C#N)[C@H](C2)N1C"
Key: -1.42

Exercise: Identify measured log10(IC50) associated with "COC1=C(C)C(=O)C2=C(C1=O)[C@@H]1[C@@H]3CC4=C(C(=O)C(OC)=C(C)C4=O)[C@H](COC(=O)c4ccc([N+](=O)[O-])cc4)N3[C@@H](C#N)[C@H](C2)N1C"
Key: -1.59

Exercise: Identify measured log10(IC50) associated with "COC1=C(C)C(=O)C2=C(C1=O)[C@@H]1[C@@H]3CC4=C(C(=O)C(OC)=C(C)C4=O)[C@H](COC(=O)C(C)C)N3[C@@H](C#N)[C@H](C2)N1C"
Key: -1.66

Exercise: Identify measured log10(IC50) associated with "COC1=C(C)C(=O)C2=C(C1=O)[C@@H]1[C@@H]3CC4=C(C(=O)C(OC)=C(C)C4=O)[C@H](COC(C)=O)N3[C@@H](C#N)[C@H](C2)N1C"
Key: -2.49

* * *

tested on: HCT-116; assay: Cytotoxicity against human HCT116 cells after 3 days by MTT assay; type: functional, cell-based; settings: Homo sapiens, HCT-116, 72 h
Quantity measured: log10 IC50 (log10 of the value in nM)
The common logarithm of IC50 in nM is what is listed.

# example entries with known answers
• COC1=C(C)C(=O)C2=C(C1=O)[C@@H]1[C@@H]3CC4=C(C(=O)C(OC)=C(C)C4=O)[C@H](COC(=O)c4ccncc4)N3[C@@H](C#N)[C@H](C2)N1C = 1.00
• COC1=C(C)C(=O)C2=C(C1=O)[C@@H]1[C@@H]3CC4=C(C(=O)C(OC)=C(C)C4=O)[C@H](COC(=O)C4CC=CCC4)N3[C@@H](C#N)[C@H](C2)N1C (mixture of isomers) = 1.63
• CCC(C)C(=O)OC[C@H]1C2=C(C[C@H]3[C@H]4C5=C(C[C@@H]([C@H](C#N)N13)N4C)C(=O)C(C)=C(OC)C5=O)C(=O)C(C)=C(OC)C2=O (mixture of isomers) = 1.52
• COC1=C(C)C(=O)C2=C(C1=O)[C@@H]1[C@@H]3CC4=C(C(=O)C(OC)=C(C)C4=O)[C@H](COC=O)N3[C@@H](C#N)[C@H](C2)N1C = 1.58
• CCC(=O)OC[C@H]1C2=C(C[C@H]3[C@H]4C5=C(C[C@@H]([C@H](C#N)N13)N4C)C(=O)C(C)=C(OC)C5=O)C(=O)C(C)=C(OC)C2=O = 1.04

Exercise: Using HCT-116 as the test system, report measured log10 IC50 of "COC1=C(C)C(=O)C2=C(C1=O)[C@@H]1[C@@H]3CC4=C(C(=O)C(OC)=C(C)C4=O)[C@H](CO)N3[C@@H](C#N)[C@H](C2)N1C" .
Key: 2.11

Exercise: Using HCT-116 as the test system, report measured log10 IC50 of "COC1=C(C)C(=O)C2=C(C1=O)[C@@H]1[C@@H]3CC4=C(C(=O)C(OC)=C(C)C4=O)[C@H](COC(=O)c4ccc5ccccc5n4)N3[C@@H](C#N)[C@H](C2)N1C" .
Key: 1.04

Exercise: Using HCT-116 as the test system, report measured log10 IC50 of "COC1=C(C)C(=O)C2=C(C1=O)[C@@H]1[C@@H]3CC4=C(C(=O)C(OC)=C(C)C4=O)[C@H](COC(=O)C4CCCC4)N3[C@@H](C#N)[C@H](C2)N1C" .
Key: 1.97
